Sourced from patent US5624906A

- measurement-protocol: Ross-Miles foam height (Examples 81-84)
- Format: physicochemical
- study-conditions: after 10 minutes; 0.1% aldonamide, 40° C. (or 5-10° C. above Krafft point), 0 ppm hardness
Reported Foam Height Final values are given for each entry in this list.
Only the number, expressed in mm, is required.

1. CCCCCCCCCCCCOCCCNC(=O)[C@H](O)[C@H](O)[C@@H](O)[C@H](O)[C@H](O)CO [C12 Oxypropyl D-Glucoheptonamide] :: 80
2. CCCCCCCCNC(=O)[C@H](O)[C@@H](O)[C@H](O)[C@H](O)CO [C8 D-Gluconamide] :: 0
3. CCCCCCCCCCCCOCCCNC(=O)[C@H](O)[C@@H](O)[C@H](O)[C@H](O)CO [C12 Oxypropyl D-Gluconamide] :: 110
4. CCCCCCCCCCCCCNC(=O)[C@H](O)[C@@H](O)[C@H](O[C@@H]1O[C@H](CO)[C@H](O)[C@H](O)[C@H]1O)[C@H](O)CO [C13 D-Lactobionamide] :: 78
5. CCCCCCCCCCCCCCNC(=O)[C@H](O)[C@@H](O)[C@H](O[C@@H]1O[C@H](CO)[C@H](O)[C@H](O)[C@H]1O)[C@H](O)CO [C14 D-Lactobionamide] :: 59
6. CCCCCCCC/C=C\CCCCCCCCNCCCNC(=O)[C@H](O)[C@@H](O)[C@H](O)[C@H](O)CO [Oleylaminopropyl D-Gluconamide, oleylaminopropyl D-gluconamide] :: 84
7. CCCCC(CC)COCCCNC(=O)[C@H](O)[C@@H](O)[C@H](O)[C@H](O)CO (stereo partly drawn) [Ethylhexyloxypropyl D-Gluconamide] :: 0
8. CCCCCCCCCCNC(=O)[C@H](O)[C@@H](O)[C@H](O)[C@H](O)CO [C10 D-Gluconamide] :: 6
9. CCCCCCCCCNC(=O)[C@H](O)[C@@H](O)[C@H](O[C@@H]1O[C@H](CO)[C@H](O)[C@H](O)[C@H]1O)[C@H](O)CO [C9 D-Lactobionamide, nonyl D-lactobionamide] :: 0
10. CCCCCCCCCCCCCCNC(=O)[C@H](O)[C@@H](O)[C@H](O[C@H]1O[C@H](CO)[C@@H](O)[C@H](O)[C@H]1O)[C@H](O)CO [C14 D-Maltobionamide] :: 140

Prompt: Requested field: Foam Height Final. Item: CCCCCCCCCCCNC(=O)[C@H](O)[C@@H](O)[C@H](O[C@@H]1O[C@H](CO)[C@H](O)[C@H](O)[C@H]1O)[C@H](O)CO [C11 D-Lactobionamide]
Completion: 0

Prompt: Requested field: Foam Height Final. Item: CCCCCCCNC(=O)[C@H](O)[C@@H](O)[C@H](O)[C@H](O)CO [C7 D-Gluconamide]
Completion: 0
